Assay: Aqueous solubility determination (suspension equilibration for three days, HPLC)
Format: physicochemical
Conditions: pure water, 25±2° C. (ambient temperature), about three days of suspension equilibration, filtered solution
Test Readout: solubility thermodynamic at 3 days

Consider O=C(O)c1ccc(-n2nc(-c3ccccc3O)nc2-c2ccccc2O)cc1 [Deferasirox free drug substance] . Its measured solubility thermodynamic at 3 days is < 1 µg/mL
